study-target: Recombinant human MMP-13 (Homo sapiens)
Construct: made in house; host or cells: baculovirus / insect cells
assay-protocol: biochemical
protocol-conditions: fluorogenic MCA-peptide substrate, pH 7.5, room temperature; read-out: MMP-13 IC50
Entries and their measured IC50 follow.
The figure you give is taken to be in nM; do not add the unit.

Some solved cases for reference:
CC(C)COc1ccc(C(=O)C2CCN(c3ccc(S(=O)(=O)C4(C(=O)NO)CCN(C5CC5)CC4)cc3)CC2)cc1 [Example 216]	1.5
CN(C)Cc1ccc(C(=O)C2CCN(c3ccc(S(=O)(=O)C4(C(=O)NO)CCOCC4)cc3)CC2)cc1 [Example 384]	2.9
CCC(CC)Cc1ccc(C(=O)C2CCN(c3ccc(S(=O)(=O)C4(C(=O)NO)CCN(CCOC)CC4)cc3)CC2)cc1 [Example 230]	0.1
C#CCN1CCC(C(=O)NO)(S(=O)(=O)c2ccc(N3CCC(C(=O)c4cccc(C)c4)CC3)cc2)CC1 [Example 154]	2.4
CNc1ccc(C(=O)C2CCN(c3ccc(S(=O)(=O)C4(C(=O)NO)CCN(S(C)(=O)=O)CC4)cc3)CC2)cc1 [Example 167]	4.7

// COCCN1CCC(C(=O)NO)(S(=O)(=O)c2ccc(N3CCC(c4nc5ccccc5o4)CC3)cc2)CC1 [Example 258] : IC50 value = 14.1

// O=C(c1ccc(Cl)cc1)C1CCN(c2ccc(S(=O)(=O)C3(C(=O)NO)CCN(CC4CC4)CC3)cc2)CC1 [Example 123] : IC50 value = 0.1

This collection of values is drawn from patent US20040209914A1.
